target: TDP-43 (Homo sapiens, UniProt Q13148 1-414); experiment: RNA Bind-n-Seq with designed 260-mer pool; 25 mM Tris-HCl, 150 mM KCl, 3 mM MgCl2, BSA (printed 500 mg/mL), 20 units/mL SUPERase IN; pH not stated; 500 nM RNA pool, 1 h, 4 C; TDP-43 5, 50, 500 nM; high values mean tight binding; settings: protein: recombinant; tags: SBP (GST cleaved off with PreScission; pGEX-GST-SBP)
Sequence (Q13148 whole entry): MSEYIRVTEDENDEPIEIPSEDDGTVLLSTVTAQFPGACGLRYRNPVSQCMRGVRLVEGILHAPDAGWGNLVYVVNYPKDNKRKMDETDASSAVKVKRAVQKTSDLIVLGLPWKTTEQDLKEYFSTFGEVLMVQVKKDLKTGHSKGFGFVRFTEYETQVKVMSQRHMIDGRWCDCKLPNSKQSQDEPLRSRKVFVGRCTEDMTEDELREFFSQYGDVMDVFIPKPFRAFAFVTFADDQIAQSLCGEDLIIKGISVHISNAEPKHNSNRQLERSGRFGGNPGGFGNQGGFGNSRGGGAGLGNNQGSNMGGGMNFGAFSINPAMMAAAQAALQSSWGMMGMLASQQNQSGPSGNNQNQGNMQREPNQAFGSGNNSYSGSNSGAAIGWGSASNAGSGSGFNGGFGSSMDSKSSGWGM
The full ranking holds about 9,900 sequences; the median of “r (bound/input frequency ratio)” is about 0.7, and the highest 2% start at about 6.5. This is one part of a sample in which the highest values are shown more often than they occur.
Parameter Measured: binding signal

ENSMUSG00000058297.456|Spock2|123:127 (ssRNA) RNA: GGGAGUUCUACAGUCCGACGAUCGCUUCGAUAUCCGCAUGCUAUCACACAGGUCAGAUUAUUGUCGGUCCUGCGGGCCUCAUCCUUGAAUAAGCUGCCUGCCCAGUUCCUCCAUCCGUGUUCCUGCCUGCUCCCGUUCCCUUGUUGCGGGCAGGAGAGGUAGGGCACACAUGGAAAGAGUUCAACCAAAUUACGGCAGCACCACAUCUUGCCGAGCCCUGGAGCUGCCCUACUAAGAGCCUCCUUAGCCCUGGGUGCUGGGAAGGAUGGUGUACGUUGGGGAAGUUUGAGGUUGGAGAGAGUACUCUUGCGGUCGCACUAGUGUGGAAUUCUCGGGUGUCAAGG ... 0.829 R (bound/input frequency ratio)

Shift focus to the following entry.
Which value of binding signal has been reported for ENSMUSG00000031028.488|Tub|93:99;130:136 (ssRNA) RNA: GGGAGUUCUACAGUCCGACGAUCGCUUCGAUAUCCGCAUGCUAAGGAGGAGCUGAGAUGUGCACCCUUUUAAAUGAACAUGGGGUGGUGAUGGUGCCUUAACAAUCUUGACACUAAGGUGAAGCAAGCAAGUAAGCACACACCCUCUGGGAAGACAGGAGUCGGAAGCCAAGCACACACGCAACAGUCUGGAAGAGAGCUUUUGGUAAUCAUACCGUCUUCAGUGACAAGGCAACAAUGCUGUAAAGUGGGUUUGUUUGGUUUUGUUUUUUCUUUCUCUUUUAUGGAAAUGGCAGGUCUAUUUCUCUUGCGGUCGCACUAGUGUGGAAUUCUCGGGUGUCAAGG in the records? 0.906 R (bound/input frequency ratio)
